For each entry below, report its inhibition at 20 µM value.
- target_or_system: KRas G12C mutant (Homo sapiens (Human), UniProt P01116, G12C)
- Sequence (P01116-2 other isoform, or with tags, fused parts or gaps G12C): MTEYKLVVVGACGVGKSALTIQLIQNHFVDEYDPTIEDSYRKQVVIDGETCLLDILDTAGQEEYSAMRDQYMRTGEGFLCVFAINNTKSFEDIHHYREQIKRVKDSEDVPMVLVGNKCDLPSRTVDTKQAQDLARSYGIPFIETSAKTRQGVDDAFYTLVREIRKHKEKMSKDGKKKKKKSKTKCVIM
- method_summary: Ras GTP binding domain inhibition assay (labeled GTP)
- protocol_conditions: 20 μM compound; KRas G12C; read-out: % Inhibition at 20 μM of K-Ras mutant and wild-type protein, KRas G12C

Consider the worked cases shown below.
* Cc1sc2c(O)nc(-c3ccccn3)nc2c1-c1ccncc1 [drawing 3497] | 25 to 50%
* COCCNc1nc(-c2nccn2C)nc2sc(-c3ccccc3)c(-c3ccc(OC)cc3)c12 [drawing 3589] | 25 to 50%
* COCCN(C)c1nc(-c2nccn2C)nc2sc(-c3ccccc3)c(-c3ccccc3)c12 [drawing 3566] | 25 to 50%

// each listed compound needs a value for inhibition at 20 µM
1. Cc1sc2c(O)nc(-c3nccn3C)nc2c1-c1ccc(OCC(C)C)nc1 [drawing 3600]
2. Cc1ccccc1-c1c(C)sc2c(O)nc(-c3nccn3C)nc12
3. CC(C)Oc1cnc(-c2ccccn2)nc1O [drawing 3481]
4. CC(C)OCCNc1nc(-c2nccn2C)nc2sc(-c3ccccc3)c(-c3ccccc3)c12 [drawing 3567]
5. Cn1ccnc1-c1nc(NCCCO)c2c(-c3ccccc3)c(-c3ccccc3)sc2n1 [drawing 3579]
6. COCCNc1nc(-c2nccn2C)nc2sc(-c3ccccc3)c(-c3ccccn3)c12 [drawing 3622]

1. 1 to 25%
2. 1 to 25%
3. 51 to 75%
4. 51 to 75%
5. 25 to 50%
6. 25 to 50%

---

Give inhibition at 20 µM for every item shown.
- target_or_system: KRas G12C/Q61H double mutant (Homo sapiens (Human), UniProt P01116, G12C/Q61H)
- Sequence (P01116-2 other isoform, or with tags, fused parts or gaps G12C/Q61H): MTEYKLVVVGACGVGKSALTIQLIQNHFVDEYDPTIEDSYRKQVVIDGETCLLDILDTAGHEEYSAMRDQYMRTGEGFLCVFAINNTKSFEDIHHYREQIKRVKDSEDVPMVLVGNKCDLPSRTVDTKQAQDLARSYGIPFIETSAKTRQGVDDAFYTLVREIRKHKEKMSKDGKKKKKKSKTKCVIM
- method_summary: Ras GTP binding domain inhibition assay (labeled GTP)
- protocol_conditions: 20 μM compound; read-out: % Inhibition at 20 μM KRas G12C Q61H

- COCCCCNC(=O)c1csc2nc(-c3ccccn3)nc(N3CCOCC3)c12 [drawing 2789]: 1 to 25%
- O=C(c1csc2c(O)nc(-c3ccccn3)nc12)N1CCN(Cc2ccc(O)c(Cl)c2)CC1 [drawing 2765]: 76 to 100%

Dear colleague, could you please provide inhibition at 20 µM for the molecules listed below?
1. CC(C)(O)c1ccc(-c2csc3c(O)nc(-c4ccccn4)nc23)c(F)c1 [drawing 2880]
2. O=C(c1csc2c(O)nc(-c3ccccn3)nc12)N1CCN(Cc2ccc(O)cc2)CC1 [drawing 2764]
3. O=C(O)c1cc2nc(-c3ccccn3)nc(O)c2s1 [drawing 2850]
4. N#Cc1ccc(COCC(=O)Nc2ccnc(-c3ccccn3)n2)cc1 [drawing 2796]

1. 51 to 75%
2. 25 to 50%
3. 51 to 75%
4. 25 to 50%

Give measured inhibition at 20 µM for every item shown.
1. O=C(c1csc2c(O)nc(-c3ccccn3)nc12)N1CCN(c2ccc(O)c(Cl)c2)CC1 [drawing 2803]
2. COc1ccc(N2CCN(C(=O)c3csc4c(O)nc(-c5ccccn5)nc34)CC2)cc1O [drawing 2802]
3. Oc1nc(-c2ccccn2)nc2c(-c3cc(F)cc(F)c3)csc12 [drawing 2900]
4. O=C(c1csc2c(O)nc(-c3ccccn3)nc12)N1CCNC(Cc2cccc(F)c2)C1 (stereo not drawn) [drawing 2832]
5. CC(c1ccccc1)N1CCN(C(=O)c2csc3c(O)nc(-c4ccccn4)nc23)CC1 (stereo not drawn) [drawing 2804]
6. COc1cccc(-c2csc3c(O)nc(-c4ccccn4)nc23)c1 [drawing 2872]

1. 51 to 75%
2. 51 to 75%
3. 51 to 75%
4. 51 to 75%
5. 51 to 75%
6. 1 to 25%

Give inhibition at 20 µM for all molecules that follow.
1. COc1ccc(CCN(C)C(=O)c2csc3nc(-c4ccccn4)nc(N4CCOCC4)c23)cn1 [drawing 2746]
2. O=C(c1cc2nc(-c3ccccn3)nc(O)c2s1)N1CCN(c2ccccc2)CC1 [drawing 2841]
3. O=C(COCc1ccnc(O)c1)Nc1nc(-c2ccccn2)nc2sccc12 [drawing 2857]
4. O=C(c1csc2c(O)nc(-c3ccccn3)nc12)N1CCOC(c2cccc(F)c2)C1 (stereo not drawn) [drawing 2732]

25 to 50%
51 to 75%
51 to 75%
1 to 25%

Batch request: inhibition at 20 µM per item, same order as input.
1. CC(C(=O)Nc1ccnc(-c2ccccn2)n1)c1ccc(C#N)cc1 (stereo not drawn) [drawing 2794]
2. COc1cnc(CN)[nH]c1=O [drawing 2801]

["51 to 75%", "1 to 25%"]
